Where do the numbers come from? From patent US20160002248A1.

Target: purified recombinant human GAC (GLS1) (Homo sapiens, UniProt O94925)
Sequence (O94925 55-598 isoform O94925-3 limits assumed): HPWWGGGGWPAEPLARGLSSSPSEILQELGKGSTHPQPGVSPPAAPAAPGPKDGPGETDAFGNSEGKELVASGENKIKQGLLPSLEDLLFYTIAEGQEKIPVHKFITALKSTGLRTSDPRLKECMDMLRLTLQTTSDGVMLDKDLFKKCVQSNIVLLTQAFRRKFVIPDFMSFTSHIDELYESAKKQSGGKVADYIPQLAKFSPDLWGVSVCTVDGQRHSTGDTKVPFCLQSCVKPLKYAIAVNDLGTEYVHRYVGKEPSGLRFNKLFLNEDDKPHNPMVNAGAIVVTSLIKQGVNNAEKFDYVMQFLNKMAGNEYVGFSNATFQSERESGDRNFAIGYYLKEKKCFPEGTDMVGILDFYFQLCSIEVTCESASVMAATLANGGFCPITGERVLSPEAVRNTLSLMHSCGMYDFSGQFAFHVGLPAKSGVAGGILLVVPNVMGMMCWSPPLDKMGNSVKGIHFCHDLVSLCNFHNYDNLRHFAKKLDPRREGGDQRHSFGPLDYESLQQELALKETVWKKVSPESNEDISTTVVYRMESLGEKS
Experiment: GLS1 Enzymatic Activity Assay (dual-coupled enzymatic assay)
pIC50: −log10 of the molar value.
Can you tell me pIC50 for the items I'm about to list?

Q. Identify measured pIC50 associated with O=C(Cc1cccc(OC(F)(F)F)c1)Nc1nnc(CCCCc2cc3cc[nH]c3nn2)s1
A. 6.30 to 7.00

Q. Identify measured pIC50 associated with O=C(Cc1ccccn1)Nc1nnc(CCCCc2cc3cc(Cc4ccccc4)[nH]c3nn2)s1
A. > 7.00

Q. Identify measured pIC50 associated with COc1cncc(CNC(=O)c2cn(CCCCc3cc4cc(C5CC5)[nH]c4nn3)nn2)c1
A. > 7.00

Q. Identify measured pIC50 associated with O=C(NCc1ccc(CF)nc1)c1cn(CCCCc2cc3c(-c4ccc(F)cc4F)c(C4CC4)[nH]c3nn2)nn1
A. > 7.00

Q. Identify measured pIC50 associated with O=C(NCc1cccc(OC(F)(F)F)c1)c1cn(CCCCc2cc3c(C4=CCNCC4)c(C4CC4)[nH]c3nn2)nn1
A. 6.30 to 7.00

Q. Identify measured pIC50 associated with COc1ccnc(CNC(=O)c2cn(CCCCc3cc4cc(C5CC5)[nH]c4nn3)nn2)c1
A. 6.30 to 7.00

Q. Identify measured pIC50 associated with O=C(NCc1cc(OC(F)(F)F)ccc1F)c1cn(CCCCc2cc3cc(C4CN(S(=O)(=O)C(F)(F)F)C4)[nH]c3nn2)nn1
A. > 7.00

Q. Identify measured pIC50 associated with O=C(NCc1cc(OC(F)(F)F)ccc1F)c1cn(CCCCc2cc3cc(-c4ccccc4F)[nH]c3nn2)nn1
A. > 7.00

Q. Identify measured pIC50 associated with Cc1cc(CNC(=O)c2cn(CCCCc3cc4cc(C5CC5)[nH]c4nn3)nn2)nn1C
A. 6.30 to 7.00

Q. Identify measured pIC50 associated with Cc1ccc(CNC(=O)c2cn(CCCCc3cc4c(CCc5ccccc5)c(C5CC5)[nH]c4nn3)nn2)cn1
A. > 7.00

Q. Identify measured pIC50 associated with CC(C)(C)OC(=O)N1CC=C(c2c(C3CC3)[nH]c3nnc(CCCCn4cc(C(=O)NCc5cccc(OC(F)(F)F)c5)nn4)cc23)CC1
A. > 7.00

Q. Identify measured pIC50 associated with O=C(NCc1ccccn1)c1cn(CCCCc2cc3cc(-c4ccccc4F)[nH]c3nn2)nn1
A. > 7.00

Q. Identify measured pIC50 associated with O=C(NCc1ccccc1)c1cn(CCCCc2cc3cc[nH]c3nn2)nn1
A. 5.30 to 6.30

Q. Identify measured pIC50 associated with CCOC(=O)c1nnc(CCCCc2cc3cc(C4CC4)[nH]c3nn2)s1
A. 6.30 to 7.00

Q. Identify measured pIC50 associated with Cc1ccc(CNC(=O)c2cn(CCCCc3cc4c(-c5cccc(CNS(C)(=O)=O)c5)c(C5CC5)[nH]c4nn3)nn2)cn1
A. > 7.00
